Target: CCK2R (Rattus norvegicus)
Construct: host or cells: AR42J cells
Sequence (P30553 whole entry): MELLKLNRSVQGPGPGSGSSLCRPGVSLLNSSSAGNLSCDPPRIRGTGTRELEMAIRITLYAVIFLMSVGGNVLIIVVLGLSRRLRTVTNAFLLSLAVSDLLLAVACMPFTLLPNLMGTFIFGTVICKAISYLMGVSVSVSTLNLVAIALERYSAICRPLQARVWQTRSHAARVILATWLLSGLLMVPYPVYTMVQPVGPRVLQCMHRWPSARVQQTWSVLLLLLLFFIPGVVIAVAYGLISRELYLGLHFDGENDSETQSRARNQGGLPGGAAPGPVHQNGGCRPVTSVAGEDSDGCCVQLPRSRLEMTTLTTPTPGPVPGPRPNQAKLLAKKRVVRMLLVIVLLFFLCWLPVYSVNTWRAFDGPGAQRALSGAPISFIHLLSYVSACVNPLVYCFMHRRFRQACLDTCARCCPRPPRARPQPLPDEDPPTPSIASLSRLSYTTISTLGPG
Test: Competitive cell-binding assay on AR42J cells with 125I-C3 as competitive ligand
Details: AR42J cells, 125I-C3 competitive ligand, 37° C. 1 h; read-out: CCK2R/IC50
measured-metric: pIC50
Value format note: pIC50 is -log10 of concentration (mol/L); just state the number.

stdin: Could you tell me which pIC50 is on file for C[C@@H](O)[C@H](NC(=O)[C@@H]1CSSC[C@H](NC(=O)[C@@H](Cc2ccccc2)NC(=O)COCCOCCNC(=O)COCCOCCNC(=O)[C@H](CCCCNC(=O)c2cccc(NC(=O)N[C@@H]3CN(C4CCCCC4)c4ccccc4N(CC(=O)C(C)(C)C)C3=O)c2)NC(=O)CN2CCN(CC(=O)O)CCN(CC(=O)O)CCN(CC(=O)O)CC2)C(=O)N[C@@H](Cc2ccc(O)cc2)C(=O)N[C@H](Cc2c[nH]c3ccccc23)C(=O)N[C@@H](CCCCN)C(=O)N[C@@H]([C@@H](C)O)C(=O)N1)C(=O)O [Compound I-39, DOTA-K(Z360)-OEG-OEG-f[CYwKTC]T-OH] ?
stdout: 8.31
